Reported EC50 values for the following compounds.
# assay.procedure: inhibitors of intracellular T. cruzi replication, confirmation, NIH3T3 host cells, beta-gal luminescence (AID 2044);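 note: intracellular parasites grown in NIH/3T3 mouse fibroblasts as host cells; luminescent beta-galactosidase reporter signal from transgenic T. cruzi replicating inside host cells; inhibitors lower the luminescence signal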
# Type: functional, cell-based
Calls of active or inactive are those of the source.

These recorded examples may help you get a feel for the data.
[in] Given the compound O=C(NC1CCCCCC1)c1cccnc1S , what is its reported EC50?
[out] 8390 nM (active)

[in] Now this one: Cc1ccsc1C(=O)C1CCCN(Cc2c(C)nn(C(C)C)c2C)C1 (centres undefined)
[out] < 100 nM (active)

[in] Now this one: CC(C(=O)N(C)Cc1ccccc1)N1CCN(C/C=C/c2ccccc2)CC1 (centres undefined)
[out] 164 nM (active)

Continuing:
[in] Given the compound O=[N+]([O-])c1ccc(S(=O)(=O)N2CCN(c3ccnc4cc(Cl)ccc34)CC2)cc1 , what is its reported EC50?
[out] 581 nM (active)

[in] Now this one: O=C(c1cc2nc(-c3ccc(F)cc3)cc(C(F)(F)F)n2n1)N1CCCCC1c1cccnc1 (centres undefined)
[out] 164 nM (active)

[in] Now this one: COc1ccc(C)cc1NC(=O)CN1CCN(S(=O)(=O)c2ccc(C(C)C)cc2)CC1
[out] 1790 nM (active)

###

# target: Cytochrome P450 2D6 (Homo sapiens);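 note: CYP2D6 member of a cytochrome P450 panel assay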
# Sequence (P10635 whole entry): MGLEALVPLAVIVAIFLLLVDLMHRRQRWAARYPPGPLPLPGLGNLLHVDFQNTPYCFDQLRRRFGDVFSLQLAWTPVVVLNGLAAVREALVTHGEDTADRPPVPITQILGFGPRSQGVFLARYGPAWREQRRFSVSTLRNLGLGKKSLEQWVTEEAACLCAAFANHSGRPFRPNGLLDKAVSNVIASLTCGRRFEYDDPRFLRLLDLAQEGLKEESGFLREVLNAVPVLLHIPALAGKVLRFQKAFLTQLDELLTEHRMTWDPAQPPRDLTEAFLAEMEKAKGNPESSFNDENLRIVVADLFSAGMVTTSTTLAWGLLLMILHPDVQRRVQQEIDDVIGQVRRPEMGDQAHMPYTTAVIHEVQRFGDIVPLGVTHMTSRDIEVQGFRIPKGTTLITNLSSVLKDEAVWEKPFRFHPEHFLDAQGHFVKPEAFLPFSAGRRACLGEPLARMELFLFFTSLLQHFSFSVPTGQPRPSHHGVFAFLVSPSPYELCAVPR
Calls of active or inactive are those of the source.
readout.name: AC50

These recorded examples may help you get a feel for the data.
[in] Given the compound CCCCNc1nc(SC)nc2[nH]cnc12 , what is its reported AC50?
[out] 2.51 µM (inconclusive)

[in] Now this one: COc1ccccc1C1CC(c2c(O)nc3ccc(Cl)cc3c2-c2ccccc2)=NN1S(C)(=O)=O (stereo unspecified)
[out] 7.08 µM (inconclusive)

[in] Now this one: O=C(NCCCN1CCCCCC1)C1CC(=O)N(CCc2ccccc2)C1 (stereo unspecified)
[out] 25.1 µM (inconclusive)

[in] Now this one: COc1ccc(C(=O)NCCCN2CCOCC2)cc1OC
[out] 2 µM (inconclusive)

[in] Now this one: CN(C(=O)Cc1ccc(Cl)c(Cl)c1)[C@H](CN1CCCC1)c1ccccc1 [ICI-199,441]
[out] 0.0126 µM (active)

[in] Now this one: O=C1c2ccccc2C(=O)c2c1ccc(C(=O)O)c2-c1ccc2ccccc2c1
[out] 7.94 µM (inconclusive)

[in] Now this one: CC(C)(C)CC(C)(C)c1ccc(O)c(C[N+](C)(C)[O-])c1
[out] 7.94 µM (inconclusive)

[in] Now this one: COC(=O)[C@@]1(Cc2ccccc2)[C@H]2c3cc(C(=O)N4CCCC4)n(Cc4cc(F)cc5c4OCOC5)c3C[C@H]2CN1C(=O)c1ccccc1
[out] 10 µM (inconclusive)

Continuing:
[in] Given the compound O=C(CN(Cc1ccccc1)S(=O)(=O)c1ccc2c(c1)OCCO2)N/N=C/c1ccc(F)cc1 , what is its reported AC50?
[out] 15.8 µM (inconclusive)

[in] Now this one: CC(C)CN1CCC2(CC1)CCN(C(=O)c1cccn1C)CC2
[out] 12.6 µM (inconclusive)

[in] Now this one: Cc1ccc2nc(SCC(=O)NCc3cccs3)c(C#N)cc2c1
[out] 0.316 µM (inconclusive)

###

# target: Replicative DNA helicase DnaB (Mycobacterium tuberculosis)
# assay.procedure: DnaB intein splicing inhibitors, dose response, biochemical, cell-free fluorescence (AID 449749)
# Type: functional
Calls of active or inactive are those of the source.
Respond only with the outcome that fits, drawn from active, inactive

[in] Which outcome did this test record for the molecule N#CC1=C(N)Oc2[nH]nc(-c3cccs3)c2C1c1ccco1 (stereo unspecified) ?
[out] active

[in] Now this one: Cc1[nH][nH]c(=O)c1C(c1cc([N+](=O)[O-])ccc1O)c1c(C)[nH][nH]c1=O
[out] active

Continuing:
[in] Which outcome did this test record for the molecule C/C(CC(=O)Nc1cc(C)ccn1)=N\NC(=O)c1ccc(C)cc1 ?
[out] active

[in] Now this one: CCOc1cc(NC2CS(=O)(=O)CC2O)c(OCC)cc1NC(=O)c1ccccc1 (stereo unspecified)
[out] active

[in] Now this one: COc1ccc(C2C(C#N)=C(N)Oc3c2c(C)nn3-c2ccccc2)cc1Cn1nc(C)c([N+](=O)[O-])c1C (stereo unspecified)
[out] active

[in] Now this one: CC1=C(CC(=O)c2ccccc2)C(=O)c2ccccc2C1=O
[out] active

[in] Now this one: COc1ccc(NC(=O)c2cccc(N3C(=O)C4C5C=CC(C5)C4C3=O)c2)cc1Cl (stereo unspecified)
[out] inactive

[in] Now this one: N#C/C(=C/c1ccncc1)c1nc2ccccc2s1
[out] inactive

[in] Now this one: Cc1ccc(C(=O)NC(=S)NNS(=O)(=O)c2ccc(C)cc2)cc1
[out] active

[in] Now this one: CS(=O)(=O)N1CCC(Oc2ccccc2C(=O)N2CCCCC2CO)CC1 (stereo unspecified)
[out] inactive

[in] Now this one: O=C(O)c1cccc(N/N=C(\N=Nc2ccccc2)c2ccccc2)c1
[out] active
